Catalogue of binders with associated Kd
Molecular target: IL-23 (human, p19/p40 heterodimer) (Homo sapiens, UniProt Q9NPF7;P29460 SEQ:20-189,SEQ:23-328)
Sequence (Q9NPF7 20-189, chain 1 of 2): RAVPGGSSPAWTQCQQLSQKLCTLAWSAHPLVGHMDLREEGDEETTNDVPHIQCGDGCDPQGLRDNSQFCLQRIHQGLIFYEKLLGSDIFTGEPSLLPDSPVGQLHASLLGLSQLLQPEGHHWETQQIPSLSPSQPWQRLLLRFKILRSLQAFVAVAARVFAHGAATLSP
Sequence (P29460 23-328, chain 2 of 2): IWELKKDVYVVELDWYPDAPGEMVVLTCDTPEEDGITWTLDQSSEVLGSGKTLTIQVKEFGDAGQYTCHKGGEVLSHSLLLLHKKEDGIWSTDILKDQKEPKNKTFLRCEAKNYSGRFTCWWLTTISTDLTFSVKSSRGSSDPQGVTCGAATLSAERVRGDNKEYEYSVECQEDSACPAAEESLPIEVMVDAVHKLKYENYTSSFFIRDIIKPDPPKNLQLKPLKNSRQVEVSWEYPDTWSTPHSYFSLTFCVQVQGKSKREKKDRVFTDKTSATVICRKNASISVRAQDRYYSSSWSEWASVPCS
Experiment: filter; dot blot; DPBS with Ca and Mg, 0.1 mg/mL BSA, 30 min RT
Details: tags: R&D Systems, carrier free; label: 5'-32P
ASSAY ENDPOINT: Kd (nM)

>  <BINDER>
ACAGGCAAGUAAUUGGGGAGUGCGGGCGGGGUGU (mixed, dRmY; 2'-OMe A7; 3'-idT) [ARC1431]

>  <ASSAY ENDPOINT>
Kd

>  <MEASURED>
10

$$$$
>  <BINDER>
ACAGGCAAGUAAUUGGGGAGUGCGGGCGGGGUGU (mixed, dAmCdAdGdGmCdAdAdGmUdAdAmUmUdGmGmGdGdAdGmUdGmCmGmGdGmCdGdGmGmGmU-s-dGmU-3T (d deoxy, m 2'-OMe, s PS, 3T idT) [PS at 32-33; 2'-OMe at 2,6,10,13,14,16,17,21,23,24,25,27,30,31,32,34; 2'-deoxy at other nt 1-33; 3'-inverted dT at 35]) [ARC1625]

>  <ASSAY ENDPOINT>
Kd

>  <MEASURED>
0.4

$$$$
>  <BINDER>
GGCAAGUAAUUGGGGAGUGCGGGCGGGG (mixed, dRmY; 3'-idT) [ARC1468]

>  <ASSAY ENDPOINT>
Kd

>  <MEASURED>
10

$$$$
>  <BINDER>
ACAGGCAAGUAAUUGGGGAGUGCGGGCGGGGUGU (mixed, mAmC-s-dAdGdGmC-s-dAmAmGmUmA-s-dAmUmU-s-dGmGmG-s-dG-s-dA-s-dGmU-s-dGmCmGmGmGmCmGmGmGmGmUmGmU-3T (d deoxy, m 2'-OMe, s PS, 3T idT) [PS at 2-3, 6-7, 11-12, 14-15, 17-18, 18-19, 19-20, 21-22; 2'-deoxy at 3,4,5,7,12,15,18,19,20,22; 2'-OMe at other nt 1-34; 3'-inverted dT at 35]) [ARC1756]

>  <ASSAY ENDPOINT>
Kd

>  <MEASURED>
0.5

$$$$
>  <BINDER>
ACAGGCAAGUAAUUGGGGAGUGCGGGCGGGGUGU (mixed, ARC1544 sugars; PS at 17 linkages 5' of deoxy residues as printed in Table 29; 3'-idT [PS at 2-3, 3-4, 4-5, 6-7, 7-8, 8-9, 10-11, 11-12, 14-15, 17-18, 18-19, 19-20, 21-22, 25-26, 27-28, 28-29, 32-33; ARC1544 sugars (2'-deoxy/2'-OMe); 3'-inverted dT at 35]) [ARC1626]

>  <ASSAY ENDPOINT>
Kd

>  <MEASURED>
0.1

$$$$
>  <BINDER>
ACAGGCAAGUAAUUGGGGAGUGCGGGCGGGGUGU (mixed, dRmY; 2'-OMe G15; 3'-idT) [ARC1436]

>  <ASSAY ENDPOINT>
Kd

>  <MEASURED>
15.1

$$$$
